- assayed-target: CaMKIIδ (Homo sapiens, UniProt Q13557)
- Construct: recombinant CaMKIIδ (Invitrogen)
- Sequence (Q13557 2-499): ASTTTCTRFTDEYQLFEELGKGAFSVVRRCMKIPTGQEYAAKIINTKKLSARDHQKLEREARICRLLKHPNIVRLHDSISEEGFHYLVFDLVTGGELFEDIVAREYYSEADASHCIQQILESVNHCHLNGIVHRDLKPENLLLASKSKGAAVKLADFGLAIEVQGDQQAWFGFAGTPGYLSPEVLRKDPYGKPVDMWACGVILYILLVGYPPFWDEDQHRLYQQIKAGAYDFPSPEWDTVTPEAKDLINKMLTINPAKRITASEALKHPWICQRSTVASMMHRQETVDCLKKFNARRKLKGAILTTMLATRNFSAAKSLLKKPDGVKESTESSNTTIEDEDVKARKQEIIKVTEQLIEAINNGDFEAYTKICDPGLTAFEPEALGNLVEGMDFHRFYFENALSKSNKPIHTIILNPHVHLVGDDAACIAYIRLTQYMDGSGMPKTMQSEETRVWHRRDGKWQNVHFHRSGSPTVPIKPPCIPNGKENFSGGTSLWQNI
- protocol: in vitro kinase assay with autocamtide-2 peptide, ADP quantification
quantity-name: IC50 (µM)
Numbers only here, please. The scale is µM.

Prompt line: # IC50 lookup, item COc1ccc(S(=O)(=O)N(CCO)c2ccccc2CN(C)C/C=C/c2ccc(Cl)cc2)cc1
Response line: 6.37

Measured values drawn from paper PMC7568786 for this set.
